Numbers sourced from the supplement of paper PMC12855868.

B1: library; numbered along this chain (parent)
chain: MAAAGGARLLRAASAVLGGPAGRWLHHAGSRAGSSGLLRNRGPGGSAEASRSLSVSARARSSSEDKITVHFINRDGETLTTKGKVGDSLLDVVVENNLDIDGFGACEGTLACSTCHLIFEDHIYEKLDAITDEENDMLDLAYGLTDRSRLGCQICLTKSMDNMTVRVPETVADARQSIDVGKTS

- Variants of: B1
- experiment-summary: scaled log2 fold change in cell abundance, elesclomol vs control (0 = silent mean, 1 = nonsense mean) (scaled log2 ratio); higher = higher viability under elesclomol (loss of FDX1 cuproptosis function);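 note: variant abundance is its share of total variant reads in each endpoint sample, from next-generation sequencing of the integrated ORF PCR-amplified out of genomic DNA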
- experimental-conditions: with HEK293T FDX1 KO; elesclomol 40 nM; glucose 10 mM; 11 days
Form field: scaled log2 fold change (one value per entry).
Just the number, please, no unit after it.

R51V: -0.419
E77F: 0.94
Y124S: 0.62
H26V: 0.418
N40M: 0.304

Determine from records and report scaled log2 fold change for `G5W`
0.578

Give reported scaled log2 fold change value for `S159N`
-0.128

Specify measured scaled log2 fold change for `A59K` .
-0.733

Please list scaled log2 fold change recorded for the variant `L17C`
0.966
